System: BTK (Homo sapiens) | Read-out: log10(IC50)
Sequence (Q06187 whole entry): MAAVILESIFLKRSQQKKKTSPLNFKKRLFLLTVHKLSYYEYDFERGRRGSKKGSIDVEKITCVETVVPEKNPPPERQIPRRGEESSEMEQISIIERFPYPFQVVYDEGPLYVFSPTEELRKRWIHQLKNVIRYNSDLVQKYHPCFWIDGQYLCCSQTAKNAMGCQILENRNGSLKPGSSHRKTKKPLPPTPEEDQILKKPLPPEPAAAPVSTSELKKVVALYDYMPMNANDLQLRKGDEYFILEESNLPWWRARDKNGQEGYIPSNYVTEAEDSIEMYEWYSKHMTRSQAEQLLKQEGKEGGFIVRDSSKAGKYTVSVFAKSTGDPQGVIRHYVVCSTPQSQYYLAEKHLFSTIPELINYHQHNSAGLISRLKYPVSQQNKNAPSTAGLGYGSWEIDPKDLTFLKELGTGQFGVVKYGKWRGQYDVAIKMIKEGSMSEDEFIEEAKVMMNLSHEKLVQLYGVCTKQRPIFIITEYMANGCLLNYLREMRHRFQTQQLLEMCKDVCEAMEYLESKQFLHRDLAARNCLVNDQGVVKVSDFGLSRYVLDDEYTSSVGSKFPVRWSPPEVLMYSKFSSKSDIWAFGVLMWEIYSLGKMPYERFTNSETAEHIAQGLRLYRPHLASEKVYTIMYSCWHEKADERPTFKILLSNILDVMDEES
// units: nM (pre-log); metric: IC50; scale: log10

>>> print(df.to_string())
                                   compound  numeric_readout
0  C=CC(=O)Nc1cccc(-c2cc(CN3CCN(C)CC3)cc(Nc3ncc(C)s3)n2)c1 [Compound 37]            -0.05
1  C=CC(=O)Nc1cccc(-c2cc(CN3CCOCC3)cc(Nc3nnc(C)s3)n2)c1 [Compound 39]             2.40
2  C=CC(=O)Nc1cccc(-c2cc(C(=O)N(C)C)cc(Nc3cc(C)[nH]n3)n2)c1 [Compound 21]             1.72
3  C=CC(=O)Nc1cccc(-c2cc(Cc3ccccc3)cc(Nc3cc(CCc4ccccc4)[nH]n3)n2)c1 [Compound 10]             1.81
4  C=CC(=O)Nc1cccc(-c2cc(CN3CCN(C(=O)CC)CC3)cc(Nc3ncc(C)s3)n2)c1 [Compound 61]             0.98
5  C=CC(=O)Nc1cccc(-c2cc(CN3CCN(CC(F)(F)F)CC3)cc(Nc3ncc(C)s3)n2)c1 [Compound 50]             0.34

Could you now look at the following compound, please?
Task: Record request: log10(IC50) value, item C=CC(=O)Nc1cccc(-c2cccc(Nc3cc(C)[nH]n3)n2)c1 [Compound 12]
Result: 0.89
